Answer each item with its documented Emax.
# targetOrTestSystem: CFTR (F508del/MF-HBE cells) (Homo sapiens, UniProt P13569, DEL508-508)
# Construct: human bronchial epithelial (HBE) cells derived from CF subjects heterozygous for F508del and a minimal function CFTR mutation (F508del/MF-HBE); endogenous in cells; host or cells: Primary human bronchial epithelial cells from CF subjects (F508del/MF genotype), differentiated at an air-liquid interface
# Sequence (P13569 with tags, fused parts or gaps DEL508-508): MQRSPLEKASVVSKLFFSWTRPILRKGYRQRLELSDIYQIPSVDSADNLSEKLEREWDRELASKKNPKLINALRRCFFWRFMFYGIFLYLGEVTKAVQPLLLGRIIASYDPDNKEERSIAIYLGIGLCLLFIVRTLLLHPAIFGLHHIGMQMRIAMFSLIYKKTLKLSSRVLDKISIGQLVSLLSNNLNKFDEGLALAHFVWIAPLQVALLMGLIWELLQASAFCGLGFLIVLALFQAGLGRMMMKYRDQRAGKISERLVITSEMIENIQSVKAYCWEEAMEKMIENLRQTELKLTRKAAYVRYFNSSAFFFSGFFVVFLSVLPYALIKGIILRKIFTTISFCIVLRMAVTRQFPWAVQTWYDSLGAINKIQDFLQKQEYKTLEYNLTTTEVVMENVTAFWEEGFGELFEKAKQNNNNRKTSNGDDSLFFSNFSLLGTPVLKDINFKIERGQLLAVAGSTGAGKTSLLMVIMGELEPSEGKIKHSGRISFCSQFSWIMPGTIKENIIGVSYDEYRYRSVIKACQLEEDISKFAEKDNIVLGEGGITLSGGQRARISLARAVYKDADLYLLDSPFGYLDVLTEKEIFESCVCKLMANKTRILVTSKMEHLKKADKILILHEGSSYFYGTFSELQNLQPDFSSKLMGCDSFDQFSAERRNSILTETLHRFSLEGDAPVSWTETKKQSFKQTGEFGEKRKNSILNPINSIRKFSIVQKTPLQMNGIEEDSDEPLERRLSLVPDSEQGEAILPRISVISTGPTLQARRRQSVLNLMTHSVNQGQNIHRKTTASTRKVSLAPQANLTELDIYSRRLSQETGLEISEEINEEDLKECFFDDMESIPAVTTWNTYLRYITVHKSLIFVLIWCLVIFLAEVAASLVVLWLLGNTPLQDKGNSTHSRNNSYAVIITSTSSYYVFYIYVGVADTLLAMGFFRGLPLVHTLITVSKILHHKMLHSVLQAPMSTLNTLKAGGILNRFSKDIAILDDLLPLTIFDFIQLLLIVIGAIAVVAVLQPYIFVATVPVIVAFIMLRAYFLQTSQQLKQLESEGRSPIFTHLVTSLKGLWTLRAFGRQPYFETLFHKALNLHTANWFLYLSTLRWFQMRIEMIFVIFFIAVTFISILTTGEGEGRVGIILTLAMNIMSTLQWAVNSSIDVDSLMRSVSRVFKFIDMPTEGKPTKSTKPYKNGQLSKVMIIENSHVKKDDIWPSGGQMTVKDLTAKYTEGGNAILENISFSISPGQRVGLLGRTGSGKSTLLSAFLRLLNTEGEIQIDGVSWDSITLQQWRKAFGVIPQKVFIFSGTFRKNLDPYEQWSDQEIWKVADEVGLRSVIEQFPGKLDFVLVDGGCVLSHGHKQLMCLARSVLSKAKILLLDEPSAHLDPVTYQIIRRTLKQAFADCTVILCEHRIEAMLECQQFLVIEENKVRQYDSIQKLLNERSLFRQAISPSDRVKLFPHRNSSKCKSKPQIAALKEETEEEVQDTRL
# experimentalDetails: Ussing chamber assay of CFTR-mediated short-circuit currents, Assay C (0.026 μM to 25 μM, 6 concentrations)
# Format: cell-based
# testContext: with 33 nM potentiator and 18 μM Tezacaftor, 20% human serum, read-out: C Max activity (%)

# get_value(readout='Emax', item= CCc1cccc(CC)c1-c1cc2nc(n1)NS(=O)(=O)c1cccc(c1)C(=O)N(Cc1cnc3c(CCOC)c(C(C)(C)C)n(C)c3n1)[C@H](CC(C)C)CO2 [IV-92] )
> 60%

# get_value(readout='Emax', item= Cc1cccc(CC(C)C)c1-c1nc2nc(c1C)OC[C@@H](C[C@@H]1CCCCO1)N(Cc1cnc3cc(C(C)(C)C)n(C)c3n1)C(=O)c1cccc(c1)S(=O)(=O)N2 (atropisomer, axis not shown) [IV-81] )
> 60%

# get_value(readout='Emax', item= COc1c2nc(nc1-c1c(C)cccc1C)NS(=O)(=O)c1cccc(c1)C(=O)N(Cc1cnc3cc(C4(C)CC4)n(C)c3n1)[C@H](COC(C)C)CO2 [IV-11] )
> 60%

---

# targetOrTestSystem: CFTR (F508del/MF-HBE cells) (Homo sapiens, UniProt P13569, DEL508-508)
# Construct: human bronchial epithelial (HBE) cells derived from CF subjects heterozygous for F508del and a minimal function CFTR mutation (F508del/MF-HBE); endogenous in cells; host or cells: Primary human bronchial epithelial cells from CF subjects (F508del/MF genotype), differentiated at an air-liquid interface
# experimentalDetails: Ussing chamber assay of CFTR-mediated short-circuit currents, Assay C (0.026 μM to 25 μM, 6 concentrations)
# Format: cell-based
# testContext: with 33 nM potentiator and 18 μM Tezacaftor, 18-24 hours, 20% human serum, read-out: C Max activity (%)
# Method: Ussing chamber experiments were performed using human bronchial epithelial (HBE) cells derived from CF subjects heterozygous for F508del and a minimal function CFTR mutation (F508del/MF-HBE) and cultured as previously described (Neuberger T, Burton B, Clark H, Van Goor F Methods Mol Biol 2011:741:39-54). […] The activity of the CFTR corrector compounds on the CFTR-mediated ISC was determined in Ussing chamber studies as described above. […]
assayEndpoint: Emax

# get_value(readout='Emax', item= Cc1cccc(CC(C)C)c1-c1nc2nc(c1C)OC[C@@H](COC(C)C)N(Cc1cnc3cc(C(C)C)n(C)c3n1)C(=O)c1cccc(c1)S(=O)(=O)N2 (atropisomer, axis not shown) )
> 60%

# get_value(readout='Emax', item= Cc1cccc(C(C)C)c1-c1nc2nc(c1C)OC[C@@H](CC(C)(C)C)N(Cc1cnc3oc(C4(C)CC4)cc3n1)C(=O)c1cccc(c1)S(=O)(=O)N2 (atropisomer, axis not shown) )
> 60%

# get_value(readout='Emax', item= Cc1cccc(C)c1-c1cc2nc(n1)NS(=O)(=O)c1cccc(c1)C(=O)N(Cc1cnc3c(n1)C(=O)N(C(C)C)C3)[C@H](CC1(C)CC1)CO2 )
> 60%

# get_value(readout='Emax', item= Cc1cccc(C)c1-c1cc2nc(n1)NS(=O)(=O)c1cccc(c1)C(=O)N(Cc1cnc3cc(C4(C)CC4)n(C)c3n1)[C@H](COC(C)C)CO2 )
> 60%

# get_value(readout='Emax', item= Cc1cccc(C)c1-c1nc2nc(c1C)OC[C@@H](CC(C)(C)C)N(Cc1ncc3cc(C4CC4)n(C)c3n1)C(=O)c1cccc(c1)S(=O)(=O)N2 )
> 60%
